Every entry's value here was drawn from the supplement of paper PMC10567573.

B1: ANKRD44 (parent)
chain: FHCIETLVTTGANVNETDDWGRTA

variants of: B1; experiment: protein stability index of a GFP-peptide fusion (GPS, HEK-293T) (PSI 1-6); higher = more stable; conditions: c terminus: a fixed tail appended;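 note: lentivirally expressed fusions sorted by FACS into six bins by GFP to DsRed ratio, PSI derived from sequencing read proportions per bin multiplied by bin number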
// FALSE strictly below 2 in protein stability index; TRUE otherwise

Here's what some known entries look like.
INSERT INTO results (variant_descriptor, qualitative_label) VALUES
  ('T17R', 'FALSE'),
  ('T23V', 'TRUE'),
  ('A24W', 'FALSE'),
  ('T6Q', 'TRUE'),
  ('V8G', 'FALSE'),
  ('I4G', 'TRUE'),
  ('V14C', 'TRUE'),
  ('A24M', 'TRUE'),
  ('I4W', 'TRUE'),
  ('I4A', 'TRUE');

Hi team, for "A24H" , is the recorded protein stability index at or above 2?
TRUE

Hi team, for "T9P" , is the recorded protein stability index at or above 2?
TRUE

Textbook exercise: given the entry "A12S" , state whether its protein stability index is greater than or equal to 2.
TRUE

Test whether the variant "R22G" records protein stability index of 2 or higher.
FALSE

Is it the case that "W20F" has protein stability index reaching or exceeding 2?
TRUE

Record "D18C" ; criterion: protein stability index no lower than 2. Met?
TRUE

Could you please find out whether "R22I" has protein stability index that meets 2 or exceeds it?
FALSE

Reported protein stability index at or above 2? "T10L"
FALSE

Hi team, for "T10K" , is the recorded protein stability index at or above 2?
TRUE

Does the reported protein stability index for "E5D" fall at or above the 2 mark?
TRUE

Given the entry "N13C" , answer whether its protein stability index meets or surpasses 2.
FALSE
